System: 677734-321-R-J1-PDC complex spheroid viability
PROTOCOL SUMMARY: Anticancer human tumor 677734-321-R-J1-PDC patient-derived soft tissue sarcoma cell line growth inhibition [POLQ]; active = viability on the fitted dose curve at most 10% of control; inactive = the rest
EXPERIMENTAL PARAMETERS: second compound 0.0316 µM; first compound 0.316 µM
// classify into active, inactive

Example cases with answers are listed next.
COc1cc(C2c3cc4c(cc3C(OC3OC5COC(C)OC5C(O)C3O)C3COC(=O)C23)OCO4)cc(OC)c1O (stereo not given) + COC1C(OC(N)=O)C(O)C(Oc2ccc3c(O)c(NC(=O)c4ccc(O)c(CC=C(C)C)c4)c(=O)oc3c2C)OC1(C)C: inactive
CCc1c2c(nc3ccc(O)cc13)-c1cc3c(c(=O)n1C2)COC(=O)[C@]3(O)CC + COC1C(OC(N)=O)C(O)C(Oc2ccc3c(O)c(NC(=O)c4ccc(O)c(CC=C(C)C)c4)c(=O)oc3c2C)OC1(C)C: active
O=C(Nc1ccc(O)c(NS(=O)(=O)c2ccc(F)cc2)c1)c1ccc(-c2ccccc2)cc1 + Nc1ccc(C#CCN(C(=O)Cc2ncc(C(F)(F)F)cc2C(F)(F)F)c2ccc(F)cc2)nn1: inactive
CCc1cc2c(N3CCc4c(cc(Cn5ccnc5)cc4-c4cn(C)nc4C(F)(F)F)C3=O)cc(C)nc2c(OC)n1 + Nc1ccc(C#CCN(C(=O)Cc2ncc(C(F)(F)F)cc2C(F)(F)F)c2ccc(F)cc2)nn1: inactive
Nc1ccn(C2OC(CO)C(O)C2(F)F)c(=O)n1 (stereo not given) + Cc1cccc(N(C)C(=O)C2C(O)CCN2c2nc(C)cc(C(F)(F)F)c2C#N)c1: inactive
CCc1cc2c(N3CCc4c(cc(Cn5ccnc5)cc4-c4cn(C)nc4C(F)(F)F)C3=O)cc(C)nc2c(OC)n1 + COC1C(OC(N)=O)C(O)C(Oc2ccc3c(O)c(NC(=O)c4ccc(O)c(CC=C(C)C)c4)c(=O)oc3c2C)OC1(C)C: inactive

Query: In this assay, the call recorded for COc1cc(C2c3cc4c(cc3C(OC3OC5COC(C)OC5C(O)C3O)C3COC(=O)C23)OCO4)cc(OC)c1O (stereo not given) + Nc1ccc(C#CCN(C(=O)Cc2ncc(C(F)(F)F)cc2C(F)(F)F)c2ccc(F)cc2)nn1 was what?
Reply: inactive

Query: In this assay, the call recorded for O=c1[nH]cc(F)c(=O)[nH]1 + COC1C(OC(N)=O)C(O)C(Oc2ccc3c(O)c(NC(=O)c4ccc(O)c(CC=C(C)C)c4)c(=O)oc3c2C)OC1(C)C was what?
Reply: inactive

Query: In this assay, the call recorded for O=C(Nc1ccc(O)c(NS(=O)(=O)c2ccc(F)cc2)c1)c1ccc(-c2ccccc2)cc1 + COC1C(OC(N)=O)C(O)C(Oc2ccc3c(O)c(NC(=O)c4ccc(O)c(CC=C(C)C)c4)c(=O)oc3c2C)OC1(C)C was what?
Reply: inactive

Query: In this assay, the call recorded for Nc1ccn(C2OC(CO)C(O)C2(F)F)c(=O)n1 (stereo not given) + Nc1ccc(C#CCN(C(=O)Cc2ncc(C(F)(F)F)cc2C(F)(F)F)c2ccc(F)cc2)nn1 was what?
Reply: inactive

====

System: 677734-321-R-J1-PDC complex spheroid viability
PROTOCOL SUMMARY: Anticancer human tumor 677734-321-R-J1-PDC cell line growth inhibition [POLQ];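 note: spheroids exposed to compounds for one week; 100% = vehicle DMSO treated spheroids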
EXPERIMENTAL PARAMETERS: second compound 0.0316 µM; first compound 0.316 µM; active compounds read low
Record form. Attribute: viability, T/C. Fill in for each entry.
Give bare numbers, in %.

Examples with their reported viability, T/C follow.
COc1cc(C2c3cc4c(cc3C(OC3OC5COC(C)OC5C(O)C3O)C3COC(=O)C23)OCO4)cc(OC)c1O (stereo not given) + Cc1cccc(N(C)C(=O)C2C(O)CCN2c2nc(C)cc(C(F)(F)F)c2C#N)c1: 60.8
CC1COCCN1c1cc(C2(O)CC3CCC(C2)O3)c2cnn(-c3ccn[nH]3)c2n1 (stereo not given) + Cc1cccc(N(C)C(=O)C2C(O)CCN2c2nc(C)cc(C(F)(F)F)c2C#N)c1: 26.5
CC1COCCN1c1cc(-c2ccnn2C)c2ccnc(-c3ccn[nH]3)c2n1 (stereo not given) + Nc1ccc(C#CCN(C(=O)Cc2ncc(C(F)(F)F)cc2C(F)(F)F)c2ccc(F)cc2)nn1: 11.6
COc1cccc2c1C(=O)c1c(O)c3c(c(O)c1C2=O)CC(O)(C(=O)CO)CC3OC1CC(N)C(O)C(C)O1 (stereo not given) + COC1C(OC(N)=O)C(O)C(Oc2ccc3c(O)c(NC(=O)c4ccc(O)c(CC=C(C)C)c4)c(=O)oc3c2C)OC1(C)C: 7.79
CC1COCCN1c1cc(C2(S(C)(=N)=O)CC2)nc(-c2ccnc3[nH]ccc23)n1 (stereo not given) + Nc1ccc(C#CCN(C(=O)Cc2ncc(C(F)(F)F)cc2C(F)(F)F)c2ccc(F)cc2)nn1: 75

Please report viability, T/C for every entry that follows.
1. Nc1ccn(C2OC(CO)C(O)C2(F)F)c(=O)n1 (stereo not given) + COC1C(OC(N)=O)C(O)C(Oc2ccc3c(O)c(NC(=O)c4ccc(O)c(CC=C(C)C)c4)c(=O)oc3c2C)OC1(C)C
2. CC(C)n1c(=O)n(C)c2cnc3cc(F)c(-c4ccc(OCCCN5CCCCC5)nc4)cc3c21 + Nc1ccc(C#CCN(C(=O)Cc2ncc(C(F)(F)F)cc2C(F)(F)F)c2ccc(F)cc2)nn1
3. O=C(c1cc(Cc2n[nH]c(=O)c3ccccc23)ccc1F)N1CCN(C(=O)C2CC2)CC1 + COC1C(OC(N)=O)C(O)C(Oc2ccc3c(O)c(NC(=O)c4ccc(O)c(CC=C(C)C)c4)c(=O)oc3c2C)OC1(C)C
4. O=C(c1cc(Cc2n[nH]c(=O)c3ccccc23)ccc1F)N1CCN(C(=O)C2CC2)CC1 + Nc1ccc(C#CCN(C(=O)Cc2ncc(C(F)(F)F)cc2C(F)(F)F)c2ccc(F)cc2)nn1
5. C=CCn1c(=O)c2cnc(Nc3ccc(N4CCN(C)CC4)cc3)nc2n1-c1cccc(C(C)(C)O)n1 + COC1C(OC(N)=O)C(O)C(Oc2ccc3c(O)c(NC(=O)c4ccc(O)c(CC=C(C)C)c4)c(=O)oc3c2C)OC1(C)C

Reply:
1. 13.9
2. 103
3. 103
4. 101
5. 104
